conditions: 338.15 K; 25000 kPa; Liquid; Vibrating tube method
QUANTITY MEASURED: mass density (kg/m3)

QUERY SMILES	OBSERVED RESULT
CCCCCCCCCCO	815.1
CCCCCO	800.3
CCCCO	795.3
CCCO	789
CCCCCCCCCCCO	816.9
CCCCCCCCCO	813
CCCCCCCCO	811.1
CCO	774.4
CCCCCCO	804.5
CCCCCCCO	808.1

====

conditions: 298.15 K; 20000 kPa; Liquid; Vibrating tube method
QUANTITY MEASURED: mass density (kg/m3)

COMPOUND	OBSERVED RESULT
CCCCCCCCCCCO [1-undecanol]	839.2
CCO [ethanol]	801.7
CCCCO [butan-1-ol]	820.2
CCCCCO [pentan-1-ol]	824.3
CCCCCCCCCO [nonan-1-ol]	835.1
CCCCCCCO [heptan-1-ol]	831.1
CCCCCCCCCCO [decan-1-ol]	837.2
CCCO [propan-1-ol]	814.9
CCCCCCCCO [octan-1-ol]	833.6
CCCCCCO [hexan-1-ol]	828

====

conditions: 278.15 K; 20000 kPa; Liquid; Vibrating tube method
QUANTITY MEASURED: mass density (kg/m3)

QUERY SMILES	OBSERVED RESULT
CCCCCCCCCO	847.8
CCO	817.2
CCCCCCO	840.8
CCCCCO	837.6
CCCCCCCO	843.9
CCCCO	834
CCCCCCCCO	846.4
CCCO	829.4

====

settings: 348.15 K; 1000 kPa; Liquid; Vibrating tube method
QUANTITY MEASURED: mass density (kg/m3)

QUERY SMILES	mass density / kg/m3
CCCCCCCCCO	788.9
CCCCO	766.3
CCCCCCCCCCO	791.6
CCCO	758.3
CCCCCCCCO	786.4
CCO	740.7
CCCCCO	773.1
CCCCCCCCCCCO	793.8
CCCCCCO	778.4
CCCCCCCO	782.9

====

conditions: 348.15 K; 40000 kPa; Liquid; Vibrating tube method
QUANTITY MEASURED: mass density (kg/m3)

QUERY SMILES	mass density, kg/m3
CCO	779.2
CCCCCCCO	811.3
CCCCCCCCCCO	817.9
CCCCCCO	807.8
CCCCCCCCCO	815.9
CCCO	793
CCCCCCCCCCCO	819.9
CCCCO	799.1
CCCCCCCCO	814
CCCCCO	803.8

====

conditions: 338.15 K; 35000 kPa; Liquid; Vibrating tube method
QUANTITY MEASURED: mass density (kg/m3)

QUERY SMILES	QUANTITY MEASURED	UNIT OF MEASURE	OBSERVED RESULT
CCCCCCCCCO	mass density	kg/m3	819.1
CCCCCCCCO	mass density	kg/m3	817.3
CCCCO	mass density	kg/m3	802.5
CCCO	mass density	kg/m3	796.6
CCO	mass density	kg/m3	782.8
CCCCCCO	mass density	kg/m3	811.1
CCCCCO	mass density	kg/m3	807.2
CCCCCCCO	mass density	kg/m3	814.6
CCCCCCCCCCCO	mass density	kg/m3	822.8
CCCCCCCCCCO	mass density	kg/m3	821.1

====

conditions: 348.15 K; 20000 kPa; Liquid; Vibrating tube method
QUANTITY MEASURED: mass density (kg/m3)

COMPOUND	OBSERVED RESULT
CCCCO [butan-1-ol]	784
CCCCCCCCCO [nonan-1-ol]	803.2
CCCCCCCCCCO [decan-1-ol]	805.5
CCO [ethanol]	761.6
CCCCCO [pentan-1-ol]	789.5
CCCO [propan-1-ol]	777
CCCCCCCO [heptan-1-ol]	797.9
CCCCCCCCO [octan-1-ol]	801
CCCCCCCCCCCO [1-undecanol]	807.6
CCCCCCO [hexan-1-ol]	794.1

====

conditions: 278.15 K; 35000 kPa; Liquid; Vibrating tube method
QUANTITY MEASURED: mass density (kg/m3)

QUERY SMILES	mass density / kg/m3
CCCCCCCO	851.7
CCO	827.2
CCCCO	842.7
CCCCCCO	848.9
CCCCCCCCO	854
CCCCCO	845.9
CCCCCCCCCO	855.3
CCCO	838.6

====

conditions: 278.15 K; 60000 kPa; Liquid; Vibrating tube method
QUANTITY MEASURED: mass density (kg/m3)

QUERY SMILES	UNIT OF MEASURE	mass density
CCCCCO	kg/m3	858.4
CCCCO	kg/m3	855.6
CCO	kg/m3	841.8
CCCCCCCCO	kg/m3	865.5
CCCCCCCCCO	kg/m3	866.4
CCCCCCO	kg/m3	860.9
CCCO	kg/m3	852.1
CCCCCCCO	kg/m3	863.4

====

conditions: 318.15 K; 10000 kPa; Liquid; Vibrating tube method
QUANTITY MEASURED: mass density (kg/m3)

QUERY SMILES	QUANTITY MEASURED	UNIT OF MEASURE	OBSERVED RESULT
CCCCCCCCO	mass density	kg/m3	814.4
CCCCCCO	mass density	kg/m3	807.9
CCCCCCCCCCO	mass density	kg/m3	818.5
CCCCCCCCCCCO	mass density	kg/m3	820.6
CCO	mass density	kg/m3	777.2
CCCCCCCO	mass density	kg/m3	811.4
CCCCO	mass density	kg/m3	798.5
CCCO	mass density	kg/m3	792.2
CCCCCO	mass density	kg/m3	803.6
CCCCCCCCCO	mass density	kg/m3	816.5

====

details: 288.15 K; 55000 kPa; Liquid; Vibrating tube method
QUANTITY MEASURED: mass density (kg/m3)

COMPOUND	mass density (kg/m3)
CCCCO [butan-1-ol]	846.8
CCCCCCCO [heptan-1-ol]	855.5
CCCCCCCCCO [nonan-1-ol]	858.6
CCCO [propan-1-ol]	843.1
CCCCCO [pentan-1-ol]	850.1
CCCCCCO [hexan-1-ol]	853
CCCCCCCCCCO [decan-1-ol]	860.4
CCCCCCCCO [octan-1-ol]	857.6
CCO [ethanol]	832.3

====

details: 308.15 K; 1000 kPa; Liquid; Vibrating tube method
QUANTITY MEASURED: mass density (kg/m3)

COMPOUND	mass density, kg/m3
CCCO [propan-1-ol]	792.4
CCCCCCCCCCO [decan-1-ol]	819.3
CCCCCO [pentan-1-ol]	804
CCCCCCCCO [octan-1-ol]	815.1
CCO [ethanol]	777
CCCCCCCCCCCO [1-undecanol]	821.5
CCCCCCO [hexan-1-ol]	808.4
CCCCO [butan-1-ol]	798.8
CCCCCCCCCO [nonan-1-ol]	817.1
CCCCCCCO [heptan-1-ol]	812.1

====

conditions: 338.15 K; 40000 kPa; Liquid; Vibrating tube method
QUANTITY MEASURED: mass density (kg/m3)

QUERY SMILES	mass density [kg/m3]
CCCCO	805.9
CCCCCCCCO	820.3
CCO	786.7
CCCCCO	810.5
CCCCCCCCCCCO	825.6
CCCO	800.2
CCCCCCO	814.2
CCCCCCCO	817.5
CCCCCCCCCO	822
CCCCCCCCCCO	824

====

conditions: 308.15 K; 40000 kPa; Liquid; Vibrating tube method
QUANTITY MEASURED: mass density (kg/m3)

MOLECULE	mass density / kg/m3
CCCCCCCO [heptan-1-ol]	836
CCCCCCCCCCCO [1-undecanol]	843.4
CCCCCCCCO [octan-1-ol]	838.4
CCO [ethanol]	808.7
CCCCCCCCCO [nonan-1-ol]	839.8
CCCCCCCCCCO [decan-1-ol]	841.7
CCCO [propan-1-ol]	821
CCCCO [butan-1-ol]	825.9
CCCCCO [pentan-1-ol]	829.7
CCCCCCO [hexan-1-ol]	833.2

====

settings: 308.15 K; 55000 kPa; Liquid; Vibrating tube method
QUANTITY MEASURED: mass density (kg/m3)

MOLECULE	mass density / kg/m3
CCCCCO [pentan-1-ol]	838
CCCCCCO [hexan-1-ol]	841.1
CCCCCCCCO [octan-1-ol]	846
CCCCO [butan-1-ol]	834.5
CCCCCCCO [heptan-1-ol]	843.8
CCCCCCCCCO [nonan-1-ol]	847.3
CCO [ethanol]	818.5
CCCCCCCCCCO [decan-1-ol]	849
CCCCCCCCCCCO [1-undecanol]	850.7
CCCO [propan-1-ol]	830

Provenance of the data: the NIST ThermoML archive (doi:10.1016/j.jct.2011.10.023)
